Where do these numbers come from? They come from paper PMC12136788.

Molecular target: T1, UNK ZnF1-6 (called full-length) (human, UniProt Q9C0B0 30-357)
T1 sequence: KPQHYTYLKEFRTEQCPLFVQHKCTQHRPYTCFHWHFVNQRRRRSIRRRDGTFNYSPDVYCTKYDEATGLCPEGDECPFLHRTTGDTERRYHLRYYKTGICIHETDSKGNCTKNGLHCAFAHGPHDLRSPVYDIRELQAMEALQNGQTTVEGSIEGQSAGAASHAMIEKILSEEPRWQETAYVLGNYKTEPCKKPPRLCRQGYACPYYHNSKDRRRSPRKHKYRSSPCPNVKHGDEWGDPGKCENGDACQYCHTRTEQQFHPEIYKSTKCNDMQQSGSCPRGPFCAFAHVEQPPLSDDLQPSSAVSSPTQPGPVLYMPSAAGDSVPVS
Assay: nsRBNS (natural sequence RNA bind-n-seq); RBNS binding buffer (assumed for nsRBNS): 25 mM Tris pH 7.5, 150 mM KCl, 3 mM MgCl2, 0.01% Triton X-100, 500 ug/ml BSA, 20 U/ml SUPERase-In, 4 C; UNK is unkempt and MSI1 is Musashi-1; names of the RNAs are library labels; protein concentration not given here; high values mean tight binding
Whole data set: some 5,800 sequences, median “enrichment r” near 0.68, cut for the highest 2% near 11. The sample as a whole holds a higher share of the highest values than the screen did.
MEASURED METRIC: binding signal (enrichment R)
Give the quantity in enrichment R, number only.

BINDER	binding signal, enrichment R
chr10:95606323:95606429:-|3pUTR|ENSG00000059573|unk|FALSE|bound_elsewhere (ssRNA) RNA: GGGAGUUCUACAGUCCGACGAUCCCAUGGCUGCUUUGUGUCACCUCAGUGACUUACAGUCCCCCUUGGCAUUUAGUUGGUACUAGAGCCAGUCAUCCUUAACAAAUCUUUUCACAUUUUAUUUCUUUCACAUGUAGUCAUCUUCAACAGAGGAUUGAGCAUCA	15.5

# binding signal (binder: ENSG00000168936:stop:overlap|stop_codon|ENSG00000168936|stop_codon|NA|stop_codon (ssRNA) RNA: GGGAGUUCUACAGUCCGACGAUCGUGUGGCCAGCACCAACCCUGCUGUGCAGGCCUUUGACAUCUGGAGCUGGAGGCCUGCAUAGGCUGCAUGCAGACACGUGCCAGCGUGAAGCUGGUGAAGACCUGCCAGGAGGCAGCCACCAACAGAGGAUUGAGCAUCA ) is 1.06
